- assayNotes: Pharmacokinetic analyses (plasma, non-compartmental)
- Format: in vivo, human (patients)
- measurementParameters: human, plasma, oral, Erlotinib D28; DL2 erlotinib 150 mg + foretinib 30 mg daily; N=11
resultType: clearance (mL/min)
Express it in mL/min; write the number only.

[Q] # clearance lookup, item `C#Cc1cccc(Nc2ncnc3cc(OCCOC)c(OCCOC)cc23)c1`
[A] 76.1

###

- assayNotes: Pharmacokinetic analyses (plasma, non-compartmental)
- Format: in vivo, human (patients)
- measurementParameters: human, plasma, oral, 100 mg, Erlotinib D14; DL1 erlotinib 100 mg daily alone; N=6
resultType: clearance (mL/min)
Please respond with the number in mL/min and leave the unit unwritten.

[Q] Field request: clearance | item: `C#Cc1cccc(Nc2ncnc3cc(OCCOC)c(OCCOC)cc23)c1`
[A] 28.6

###

- assayNotes: Pharmacokinetic analyses (plasma, non-compartmental)
- Assay type: in vivo, human (patients)
- measurementParameters: human, plasma, oral, Foretinib D28; DL3 foretinib 45 mg + erlotinib 150 mg daily; N=6
resultType: Tmax (h)
The response must be a number in h with no trailing unit.

[Q] Can you look up the measured Tmax of `COc1cc2c(Oc3ccc(NC(=O)C4(C(=O)Nc5ccc(F)cc5)CC4)cc3F)ccnc2cc1OCCCN1CCOCC1` for me?
[A] 3.5

###

- assayNotes: Pharmacokinetic analyses (plasma, non-compartmental)
- Format: in vivo, human (patients)
- measurementParameters: human, plasma, oral, Erlotinib D28; DL1 erlotinib 100 mg + foretinib 30 mg daily; N=7
resultType: clearance (mL/min)
Just the number in mL/min, nothing appended.

[Q] I'd like to know its clearance. The compound in question is `C#Cc1cccc(Nc2ncnc3cc(OCCOC)c(OCCOC)cc23)c1`
[A] 33.9

###

- assayNotes: Pharmacokinetic analyses (plasma, non-compartmental)
- Assay type: in vivo, human (patients)
- measurementParameters: human, plasma, oral, Foretinib D28; DL3 foretinib 45 mg + erlotinib 150 mg daily; N=6
- Procedure: Patients underwent history and physical examination, performance status, measurement of vital signs, routine hematology and biochemistry studies, thyroid studies and tumor imaging with computed tomography scans at baseline. Blood pressure monitoring and bloodwork was repeated weekly during cycle 1 and then on day 1 of each subsequent cycle. Patients were assessed on day 1 of each subsequent cycle and as needed for toxicity management. […]
resultType: AUC(0-t) (ng·h/mL)
Write the answer as a number in ng·h/mL, unit excluded.

[Q] Looking for the measured AUC(0-t) of `COc1cc2c(Oc3ccc(NC(=O)C4(C(=O)Nc5ccc(F)cc5)CC4)cc3F)ccnc2cc1OCCCN1CCOCC1` , can you help?
[A] 1010

###

- assayNotes: Pharmacokinetic analyses (plasma, non-compartmental)
- Type: in vivo, human (patients)
- measurementParameters: human, plasma, oral, 100 mg, Erlotinib D14; DL1 erlotinib 100 mg daily alone; N=6
resultType: Tmax

[Q] Endpoint output: Tmax of `C#Cc1cccc(Nc2ncnc3cc(OCCOC)c(OCCOC)cc23)c1` . Value?
[A] 7.67 h

###

- assayNotes: Pharmacokinetic analyses (plasma, non-compartmental)
- Assay type: in vivo, human (patients)
- measurementParameters: human, plasma, oral, Foretinib D28; DL3 foretinib 45 mg + erlotinib 150 mg daily; N=6; read-out: Cmax
resultType: Cmax

[Q] May I ask what Cmax has been recorded for `COc1cc2c(Oc3ccc(NC(=O)C4(C(=O)Nc5ccc(F)cc5)CC4)cc3F)ccnc2cc1OCCCN1CCOCC1` ?
[A] 55.9 ng/mL
